target: Sentrin-specific protease 6 (Homo sapiens, UniProt Q9GZR1); assay: SAR Analysis of small molecule inhibitors of Sentrin-specific protease 6 (SENP6) using a Luminescent assay. [Related pubchem assays (depositor defined):AID2582, AID2599]; assay type: functional
Sequence (Q9GZR1 whole entry): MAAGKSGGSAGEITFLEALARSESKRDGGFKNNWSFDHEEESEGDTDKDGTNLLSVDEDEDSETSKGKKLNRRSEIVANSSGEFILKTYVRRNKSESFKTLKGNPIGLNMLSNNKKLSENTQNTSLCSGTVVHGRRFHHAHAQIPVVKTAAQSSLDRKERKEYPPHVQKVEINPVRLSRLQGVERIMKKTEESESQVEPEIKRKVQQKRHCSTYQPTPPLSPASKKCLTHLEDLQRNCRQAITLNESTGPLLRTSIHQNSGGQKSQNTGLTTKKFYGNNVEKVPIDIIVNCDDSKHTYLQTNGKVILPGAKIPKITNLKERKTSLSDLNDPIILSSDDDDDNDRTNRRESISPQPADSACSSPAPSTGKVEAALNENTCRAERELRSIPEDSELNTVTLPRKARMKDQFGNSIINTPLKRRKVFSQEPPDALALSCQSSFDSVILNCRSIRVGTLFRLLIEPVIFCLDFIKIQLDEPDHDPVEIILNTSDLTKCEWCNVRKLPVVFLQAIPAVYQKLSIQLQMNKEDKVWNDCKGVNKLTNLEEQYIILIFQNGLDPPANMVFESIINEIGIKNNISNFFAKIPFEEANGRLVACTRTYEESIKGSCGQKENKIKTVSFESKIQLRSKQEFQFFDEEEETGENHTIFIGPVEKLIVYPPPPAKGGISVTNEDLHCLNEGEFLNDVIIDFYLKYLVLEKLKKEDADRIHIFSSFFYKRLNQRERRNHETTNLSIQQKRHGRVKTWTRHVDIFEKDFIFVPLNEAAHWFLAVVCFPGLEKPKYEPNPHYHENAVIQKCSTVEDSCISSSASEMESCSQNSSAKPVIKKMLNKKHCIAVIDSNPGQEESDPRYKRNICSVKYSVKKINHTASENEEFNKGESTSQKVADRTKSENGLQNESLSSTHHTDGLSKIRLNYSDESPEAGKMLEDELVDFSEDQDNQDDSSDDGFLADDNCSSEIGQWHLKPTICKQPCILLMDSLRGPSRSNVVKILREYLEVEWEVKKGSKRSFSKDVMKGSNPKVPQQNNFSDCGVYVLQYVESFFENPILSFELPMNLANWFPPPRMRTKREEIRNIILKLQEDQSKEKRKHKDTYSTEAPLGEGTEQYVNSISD
The source made the active and inactive calls.
Please state which outcome applies, choosing from yes for active, no for inactive

Worked set:
CN(C)c1ccc(/C=C/c2noc(-c3ccccc3O)n2)cc1    yes
COC(=O)c1ccccc1NC1=C/C(=N/S(=O)(=O)c2cccs2)c2ccccc2C1=O    yes
NC(=O)c1ccc(NC(=O)c2ccc3c(c2)OCO3)cc1    no

Let us examine a further case.
Task: Hi, do you know how Brc1ccc(-c2nc(/C=C/c3ccccc3)no2)cc1 came out in this test?
Output: no

* * *

Let's look at some compounds and their measured EC50.
biological target: Peroxisome proliferator-activated receptor gamma/Nuclear receptor coactivator 1 (Homo sapiens); test: TR-FRET dose response biochemical High Throughput Screening assay for agonists of the steroid receptor coactivator 1 (SRC-1) recruitment by the peroxisome proliferator-activated receptor gamma (PPAR gamma): non-selective agonists. [Related pubchem assays (depositor defined):AID1300, AID1808, AID504735, AID631]; type: protein assay
Sequence (P37231 whole entry): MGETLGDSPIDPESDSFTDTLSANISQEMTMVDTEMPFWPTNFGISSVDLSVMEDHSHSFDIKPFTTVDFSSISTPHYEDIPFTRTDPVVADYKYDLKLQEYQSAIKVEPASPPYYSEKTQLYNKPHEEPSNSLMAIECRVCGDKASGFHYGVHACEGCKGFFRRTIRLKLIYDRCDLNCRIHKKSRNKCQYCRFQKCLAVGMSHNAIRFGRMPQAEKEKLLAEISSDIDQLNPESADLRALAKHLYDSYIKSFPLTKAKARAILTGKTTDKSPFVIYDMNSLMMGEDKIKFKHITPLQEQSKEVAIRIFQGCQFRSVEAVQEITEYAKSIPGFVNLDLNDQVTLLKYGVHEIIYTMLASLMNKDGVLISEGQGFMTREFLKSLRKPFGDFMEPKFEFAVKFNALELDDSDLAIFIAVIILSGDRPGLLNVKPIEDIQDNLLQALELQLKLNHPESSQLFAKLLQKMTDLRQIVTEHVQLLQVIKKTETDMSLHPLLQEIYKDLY
Sequence (Q15788 whole entry, further chain): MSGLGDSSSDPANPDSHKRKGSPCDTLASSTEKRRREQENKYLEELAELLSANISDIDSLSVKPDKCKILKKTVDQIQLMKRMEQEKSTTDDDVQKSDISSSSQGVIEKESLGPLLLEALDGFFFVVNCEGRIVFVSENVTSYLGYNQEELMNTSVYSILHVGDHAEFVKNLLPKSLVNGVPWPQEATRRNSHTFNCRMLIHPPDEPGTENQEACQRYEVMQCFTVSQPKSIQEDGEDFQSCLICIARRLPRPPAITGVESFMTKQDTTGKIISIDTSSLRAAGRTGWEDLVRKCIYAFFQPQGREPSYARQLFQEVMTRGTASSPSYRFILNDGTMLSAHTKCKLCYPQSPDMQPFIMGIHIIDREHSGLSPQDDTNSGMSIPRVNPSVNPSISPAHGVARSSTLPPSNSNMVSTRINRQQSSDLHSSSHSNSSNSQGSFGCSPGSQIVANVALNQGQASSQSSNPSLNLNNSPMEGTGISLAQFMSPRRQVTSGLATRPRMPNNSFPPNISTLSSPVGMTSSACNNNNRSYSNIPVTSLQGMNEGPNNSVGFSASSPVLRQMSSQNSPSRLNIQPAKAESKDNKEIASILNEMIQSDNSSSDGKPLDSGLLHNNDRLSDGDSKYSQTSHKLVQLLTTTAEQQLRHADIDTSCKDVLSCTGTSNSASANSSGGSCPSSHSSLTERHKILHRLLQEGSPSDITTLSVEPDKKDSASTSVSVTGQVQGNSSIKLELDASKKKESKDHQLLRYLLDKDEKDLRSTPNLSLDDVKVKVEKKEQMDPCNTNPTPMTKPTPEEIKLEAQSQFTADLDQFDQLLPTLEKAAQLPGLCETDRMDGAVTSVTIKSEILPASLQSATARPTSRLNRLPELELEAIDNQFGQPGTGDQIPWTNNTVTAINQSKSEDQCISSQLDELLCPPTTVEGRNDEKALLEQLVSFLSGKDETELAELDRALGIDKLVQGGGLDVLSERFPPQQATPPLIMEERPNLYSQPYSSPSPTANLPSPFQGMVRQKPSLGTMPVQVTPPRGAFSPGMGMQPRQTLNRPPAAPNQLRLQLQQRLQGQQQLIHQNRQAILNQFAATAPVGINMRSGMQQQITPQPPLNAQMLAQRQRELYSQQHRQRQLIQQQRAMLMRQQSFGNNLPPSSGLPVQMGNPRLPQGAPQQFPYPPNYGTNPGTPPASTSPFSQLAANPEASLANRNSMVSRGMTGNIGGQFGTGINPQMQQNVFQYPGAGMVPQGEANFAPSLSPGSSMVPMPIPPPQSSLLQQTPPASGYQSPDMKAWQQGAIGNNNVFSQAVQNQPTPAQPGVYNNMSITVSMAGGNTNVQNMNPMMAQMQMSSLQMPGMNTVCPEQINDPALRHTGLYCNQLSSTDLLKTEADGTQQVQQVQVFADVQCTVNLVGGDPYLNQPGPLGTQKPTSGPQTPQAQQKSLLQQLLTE
Activity calls are given as the source filed them.

CCc1cc2c(=O)n(-c3ccccc3)c(=S)[nH]c2s1    > 79.4 µM (inactive)
COc1ccc(CC(=O)Nc2ccc(-c3nc4cc(C)ccc4o3)c(O)c2)cc1OC    27.8 µM (inactive)
Cn1c(=O)cc(SCC(=O)N2CCCC2)c2ccccc21    > 79.4 µM (inactive)
OCC1(CCc2ccccc2)CCN(Cc2ccc3nsnc3c2)CC1    42.2 µM (inactive)
Cc1ccccc1-c1nnc(S)n1/N=C/c1ccc(-c2ccccc2Br)o1    29.4 µM (inactive)

Task: Which EC50 value is on record for CCn1c(=O)cc(SCC(=O)N2CCN(C(=O)c3ccco3)CC2)c2ccccc21 ?
Output: > 79.4 µM (inactive)

* * *

Let's look at some molecules and their measured EC50.
target: Mu-type opioid receptor (Homo sapiens); format: functional, cell-based;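 note: U2OS cells with beta-arrestin recruitment to OPRM1 by beta-gal complementation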
Sequence (P35372 whole entry): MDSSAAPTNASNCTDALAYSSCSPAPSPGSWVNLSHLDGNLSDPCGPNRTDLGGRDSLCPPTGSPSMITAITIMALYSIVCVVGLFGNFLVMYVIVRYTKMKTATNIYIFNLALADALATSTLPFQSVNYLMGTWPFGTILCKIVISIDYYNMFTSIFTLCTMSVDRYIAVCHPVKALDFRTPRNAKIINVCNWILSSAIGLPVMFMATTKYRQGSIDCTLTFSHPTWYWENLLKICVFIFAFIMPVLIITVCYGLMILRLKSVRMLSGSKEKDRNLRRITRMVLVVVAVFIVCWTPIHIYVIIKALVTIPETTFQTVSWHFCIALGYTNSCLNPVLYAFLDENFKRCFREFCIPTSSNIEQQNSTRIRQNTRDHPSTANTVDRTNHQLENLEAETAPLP
Calls of active or inactive are those of the source.

CCOC(=O)N1CCN(Cc2ccc(OCC(O)CN3CCCCC3)cc2)CC1 (stereo not given)    92.5 µM (inactive)
CC(=O)NCC1(c2ccccc2)CCN(CC2COc3ccccc3O2)CC1 (stereo not given)    92.6 µM (inactive)
c1cnc(N2CCN(Cc3ccc4c(c3)OCO4)CC2)nc1    92.5 µM (inactive)
CSCCC(=O)N1CC[C@@H](N2CCN(c3ccccc3F)CC2)[C@H](O)C1    92.5 µM (inactive)

Task: Which EC50 value is on record for COc1ccc(C)cc1NC(=O)c1ccc(CN2CCN(c3ccccc3)CC2)cc1 ?
Output: 92.5 µM (inactive)

* * *

Let's look at some compounds and their measured AC50.
assay: Shn3 3'UTR reporter inhibitors, dose response, cell-based, Clone20 osteoblasts, firefly luciferase, cherry-picked (AID 624132); format: functional;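 note: firefly luciferase luminescence from reporter carrying the Shn3 3'UTR in osteoblasts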
Activity calls are given as the source filed them.

COc1ccc(CNC(=O)c2nc(S(=O)(=O)Cc3ccccc3)ncc2Cl)cc1    0.956 µM (active)
CCOC(=O)C1CCCN(C(=O)Cn2sc3nc(C)cc(C)c3c2=O)C1 (configuration not stated)    12.5 µM (active)
CC(C)OC(=O)c1ccc(NCc2cc(O)ccc2O)cc1Cl    2.15 µM (active)
Cc1cccc(-c2noc(CN(C(=O)C(c3ccccc3)c3ccccc3)C(C)C)n2)c1    6.27 µM (active)
CC(C)c1ccc(NC(=O)Nc2nc(C(N)C3CCCCC3)cs2)cc1 (configuration not stated)    7.29 µM (active)

Task: Which AC50 value is on record for O=C(c1ccc(Cn2c(=S)[nH]c3ccccc3c2=O)cc1)N1CCN(c2ccccn2)CC1 ?
Output: 6.34 µM (active)

Task: Which AC50 value is on record for COc1cc2ncnc(N[C@H](C)c3ccccc3)c2cc1OC ?
Output: 8.72 µM (active)
